subject of test: AMP-activated protein kinase (AMPK) alpha-1/beta-1/gamma-1 (Homo sapiens) (UniProt P54619+Q9Y478+Q13131)
Sequence (P54619 whole entry): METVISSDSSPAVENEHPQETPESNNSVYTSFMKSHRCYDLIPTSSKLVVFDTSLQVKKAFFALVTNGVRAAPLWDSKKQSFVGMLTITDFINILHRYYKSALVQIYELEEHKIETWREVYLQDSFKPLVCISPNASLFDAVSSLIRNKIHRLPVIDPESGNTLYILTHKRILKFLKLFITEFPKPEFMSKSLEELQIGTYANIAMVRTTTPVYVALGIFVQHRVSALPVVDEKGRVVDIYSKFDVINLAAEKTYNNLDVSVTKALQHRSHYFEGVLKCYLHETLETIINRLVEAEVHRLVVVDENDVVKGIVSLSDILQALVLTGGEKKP
Sequence (Q13131 whole entry partner): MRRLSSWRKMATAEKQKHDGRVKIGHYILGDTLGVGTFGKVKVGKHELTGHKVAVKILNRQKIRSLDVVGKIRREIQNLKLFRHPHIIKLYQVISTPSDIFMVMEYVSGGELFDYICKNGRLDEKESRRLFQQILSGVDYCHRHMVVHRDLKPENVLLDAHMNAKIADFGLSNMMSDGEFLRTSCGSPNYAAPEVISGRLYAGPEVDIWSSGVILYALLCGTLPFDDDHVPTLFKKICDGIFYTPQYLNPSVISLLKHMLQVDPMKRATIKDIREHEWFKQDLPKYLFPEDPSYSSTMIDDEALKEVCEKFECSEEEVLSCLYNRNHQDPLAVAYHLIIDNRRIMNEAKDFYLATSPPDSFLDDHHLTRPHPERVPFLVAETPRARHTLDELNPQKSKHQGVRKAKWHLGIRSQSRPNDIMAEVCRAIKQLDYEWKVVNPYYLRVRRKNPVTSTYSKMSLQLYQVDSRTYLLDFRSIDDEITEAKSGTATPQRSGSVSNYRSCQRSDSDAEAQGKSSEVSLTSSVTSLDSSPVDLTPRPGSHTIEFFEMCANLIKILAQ
Sequence (Q9Y478 2-270 partner limits assumed): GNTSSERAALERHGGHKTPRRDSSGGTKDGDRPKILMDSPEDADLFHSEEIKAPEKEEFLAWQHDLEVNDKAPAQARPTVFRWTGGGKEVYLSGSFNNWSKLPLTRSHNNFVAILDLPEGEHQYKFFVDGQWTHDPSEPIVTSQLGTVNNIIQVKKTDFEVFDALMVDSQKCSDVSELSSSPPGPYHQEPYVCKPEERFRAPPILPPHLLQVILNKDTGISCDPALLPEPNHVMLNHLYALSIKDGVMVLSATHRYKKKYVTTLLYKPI
assay name: Activation of human recombinant AMPK alpha1beta1gamma1 by FRET assay
Type: protein-complex assay
The recorded pEC200 of each item maps onto one of these classes: lower band = under 7, central band = from 7 up to 8, upper band = 8 and over

{"columns": ["record smiles", "class"],
 "data": [
  ["COc1cccc(-c2ccc(-n3c(Cl)cc4[nH]c(=O)c(C#N)c(O)c43)cc2)c1O", "upper band"],
  ["N#Cc1c(O)c2c(-c3ccc(-c4ccccc4O)cc3)csc2[nH]c1=O", "upper band"],
  ["Cc1ccc(-c2ccc(-n3c(Cl)cc4[nH]c(=O)c(C#N)c(O)c43)cc2)cc1", "central band"],
  ["COc1cccc(-c2ccc(-n3ccc4[nH]c(=O)c(C#N)c(O)c43)cc2)c1", "lower band"],
  ["COc1ccccc1-c1ccc(-n2ccc3[nH]c(=O)c(C#N)c(O)c32)cc1", "lower band"],
  ["COc1cccc(-c2ccc(-n3c(Cl)cc4[nH]c(=O)c(-c5cccc(C(=O)O)c5)c(O)c43)cc2)c1O", "upper band"],
  ["COc1cccc(-c2ccc(-n3c(Cl)cc4[nH]c(=O)c(-c5ccccc5)c(O)c43)cc2)c1O", "central band"]
]}

Now for a further molecule.
Form: Item = CCc1ccc(-n2c(Cl)cc3[nH]c(=O)c(-c4ccccc4)c(O)c32)cc1 ; Class = ? lower band

====

assay name: Clearance in mouse at 1 mg/kg, iv
Type: ADME, organism-based
Parameters: dose 1 mg/kg, route intravenous
test parameters: in vivo
property measured: clearance (mL/min/kg)
Enter your answer as a number in mL/min/kg; do not include the unit.

{"columns": ["record smiles", "clearance (mL/min/kg)"],
 "data": [
  ["CCc1ccc(-n2c(Cl)cc3[nH]c(=O)c(-c4ccccc4)c(O)c32)cc1", 12]
]}

Which clearance value belongs to COc1cccc(-c2ccc(-n3ccc4[nH]c(=O)c(C#N)c(O)c43)cc2)c1O ? 2.4

Which clearance value belongs to COc1cccc(-c2ccc(-n3c(Cl)cc4[nH]c(=O)c(-c5cccc(C(=O)O)c5)c(O)c43)cc2)c1O ? 1

Which clearance value belongs to N#Cc1c(O)c2c(ccn2-c2ccc(-c3ccccc3O)cc2)[nH]c1=O ? 34

Which clearance value belongs to COc1cccc(-c2ccc(-n3c(Cl)cc4[nH]c(=O)c(-c5ccccc5)c(O)c43)cc2)c1O ? 0.3

Which clearance value belongs to N#Cc1c(O)c2c(cc(Cl)n2-c2ccc(-c3ccsc3)cc2)[nH]c1=O ? 0.9

Which clearance value belongs to COc1cccc(-c2ccc(-n3c(Cl)cc4[nH]c(=O)c(C#N)c(O)c43)cc2)c1O ? 3

Which clearance value belongs to Cc1ccc(-c2ccc(-n3c(Cl)cc4[nH]c(=O)c(C#N)c(O)c43)cc2)cc1 ? 0.7

Which clearance value belongs to N#Cc1c(O)c2c(-c3ccc(-c4ccccc4O)cc3)csc2[nH]c1=O ? 24

====

solubility for assorted compounds
assay name: Solubility of the compound
Assay type: physicochemical
Enter your answer as a number in µg/mL; do not include the unit.

Sample answers from the record:
{"columns": ["record smiles", "readout unit", "solubility"],
 "data": [
  ["COc1cccc(-c2ccc(-n3c(Cl)cc4[nH]c(=O)c(-c5cccc(C(=O)O)c5)c(O)c43)cc2)c1O", "µg/mL", 325],
  ["COc1ccc(-c2ccc(-n3ccc4[nH]c(=O)c(C#N)c(O)c43)cc2)cc1", "µg/mL", 59],
  ["COc1cccc(-c2ccc(-n3c(Cl)cc4[nH]c(=O)c(-c5ccccc5)c(O)c43)cc2)c1O", "µg/mL", 25]
]}

Which solubility value belongs to N#Cc1c(O)c2c(-c3ccc(-c4ccccc4O)cc3)csc2[nH]c1=O ? 500

Which solubility value belongs to N#Cc1c(O)c2c(cc(Cl)n2-c2ccc(-c3ccsc3)cc2)[nH]c1=O ? 186
